Tested on: PI3 Kinase α (Homo sapiens)
Sequence (P42336 whole entry): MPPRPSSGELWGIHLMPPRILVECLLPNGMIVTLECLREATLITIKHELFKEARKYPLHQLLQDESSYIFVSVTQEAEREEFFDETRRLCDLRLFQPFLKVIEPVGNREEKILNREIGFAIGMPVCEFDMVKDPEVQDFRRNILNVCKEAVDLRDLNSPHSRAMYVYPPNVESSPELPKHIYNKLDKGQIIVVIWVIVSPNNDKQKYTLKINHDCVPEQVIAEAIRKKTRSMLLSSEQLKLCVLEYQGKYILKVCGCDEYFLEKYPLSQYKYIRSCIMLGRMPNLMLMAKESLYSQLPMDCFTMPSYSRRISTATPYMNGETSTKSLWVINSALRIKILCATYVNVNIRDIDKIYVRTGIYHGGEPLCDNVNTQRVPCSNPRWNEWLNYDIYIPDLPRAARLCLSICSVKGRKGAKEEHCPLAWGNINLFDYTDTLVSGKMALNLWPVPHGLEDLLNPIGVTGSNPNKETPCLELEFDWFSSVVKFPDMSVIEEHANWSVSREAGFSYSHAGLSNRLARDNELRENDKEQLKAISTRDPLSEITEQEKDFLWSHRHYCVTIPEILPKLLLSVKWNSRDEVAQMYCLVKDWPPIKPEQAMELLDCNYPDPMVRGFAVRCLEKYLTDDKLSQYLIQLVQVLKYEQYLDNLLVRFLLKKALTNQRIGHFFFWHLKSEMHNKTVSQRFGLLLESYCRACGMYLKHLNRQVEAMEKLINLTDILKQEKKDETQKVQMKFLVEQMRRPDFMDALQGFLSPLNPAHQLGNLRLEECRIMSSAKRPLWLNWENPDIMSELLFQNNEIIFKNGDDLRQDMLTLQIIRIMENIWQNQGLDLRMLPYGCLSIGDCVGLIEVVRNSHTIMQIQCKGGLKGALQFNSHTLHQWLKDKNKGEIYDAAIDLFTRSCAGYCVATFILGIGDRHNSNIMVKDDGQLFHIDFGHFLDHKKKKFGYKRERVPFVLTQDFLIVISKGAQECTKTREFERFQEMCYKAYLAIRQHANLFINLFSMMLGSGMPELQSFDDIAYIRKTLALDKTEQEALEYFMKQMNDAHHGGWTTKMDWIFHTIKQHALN
Sequence (P27986 whole entry partner): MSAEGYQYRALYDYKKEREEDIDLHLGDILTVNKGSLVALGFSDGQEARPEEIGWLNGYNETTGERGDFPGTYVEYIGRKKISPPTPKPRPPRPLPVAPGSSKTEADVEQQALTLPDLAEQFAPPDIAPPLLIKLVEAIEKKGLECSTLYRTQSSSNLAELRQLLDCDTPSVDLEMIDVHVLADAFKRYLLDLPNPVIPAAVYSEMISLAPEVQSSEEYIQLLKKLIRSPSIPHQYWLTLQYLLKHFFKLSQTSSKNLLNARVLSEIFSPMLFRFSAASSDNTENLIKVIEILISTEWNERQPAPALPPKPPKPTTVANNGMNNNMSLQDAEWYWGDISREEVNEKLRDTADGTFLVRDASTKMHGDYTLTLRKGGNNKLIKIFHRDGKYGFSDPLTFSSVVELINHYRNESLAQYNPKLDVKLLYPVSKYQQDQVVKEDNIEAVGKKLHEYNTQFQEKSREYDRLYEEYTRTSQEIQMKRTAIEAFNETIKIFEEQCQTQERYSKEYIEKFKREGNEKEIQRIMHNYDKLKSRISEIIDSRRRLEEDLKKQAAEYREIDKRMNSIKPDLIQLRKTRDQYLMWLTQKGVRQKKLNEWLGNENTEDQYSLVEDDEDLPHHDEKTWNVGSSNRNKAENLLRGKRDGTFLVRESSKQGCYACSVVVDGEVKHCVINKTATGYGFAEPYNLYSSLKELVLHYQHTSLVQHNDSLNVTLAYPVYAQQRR
pIC50: −log10 of the molar value.
Observation type: pIC50

Challenge: Recorded pIC50 of Cc1ccc(CN2CCC(n3cnc4c(C5=CCOCC5)nc(-c5cccc(O)c5)nc43)CC2)cc1 , please.
Response given: 4.92

Challenge: Recorded pIC50 of O=C(Nc1ccc(-c2nc(C3=CCOCC3)c3cnn(CC(F)(F)F)c3n2)cc1)OCCO [Compound 10a] , please.
Response given: 6.16

Challenge: Recorded pIC50 of Oc1cccc(-c2nc(C3=CCOCC3)c3nn[nH]c3n2)c1 , please.
Response given: 7.03

Challenge: Recorded pIC50 of Oc1cncc(-c2nc(C3=CCOCC3)c3ncn(C4CCN(Cc5ccc(Cl)nc5)CC4)c3n2)c1 , please.
Response given: 6.36

Challenge: Recorded pIC50 of OCc1cccc(-c2nc(C3=CCOCC3)c3ncn(C4CCN(Cc5ccc(F)nc5)CC4)c3n2)c1 , please.
Response given: 5.98

Challenge: Recorded pIC50 of Oc1cccc(-c2nc(C3=CCOCC3)c3cnn(-c4ccccc4)c3n2)c1 , please.
Response given: 7.32

Challenge: Recorded pIC50 of Oc1cncc(-c2nc(C3=CCOCC3)c3ncn(C4CCN(Cc5ccc(Br)nc5)CC4)c3n2)c1 , please.
Response given: 6.56

Challenge: Recorded pIC50 of CCNC(=O)Nc1ccc(-c2nc(C3=CCOCC3)c3cnn(CC(F)(F)F)c3n2)cc1 , please.
Response given: 6.07

[a] Oc1cccc(-c2nc(C3=CCOCC3)c3ncn(C4CCNCC4)c3n2)c1
[b] O=C(Nc1ccccc1)Nc1ccc(-c2nc(C3=CCOCC3)c3cnn(CC(F)(F)F)c3n2)cc1
Challenge: Task for the reader: decide whether a or b has the larger pIC50. State your choice using its label.
Response given: b

[A] Oc1cncc(-c2nc(C3=CCOCC3)c3ncn(C4CCN(Cc5ccccc5)CC4)c3n2)c1
[B] CC(=O)Nc1ccc(-c2nc(C3=CCOCC3)c3cnn(C4CCN(Cc5ccccc5)CC4)c3n2)cc1
[C] CNC(=O)Nc1ccc(-c2nc(C3=CCOCC3)c3cnn(CC(F)(F)F)c3n2)cc1
Challenge: Order each entry by recorded pIC50, climbing from the minimum. A ranking is expressed here by listing the labels in the requested order.
Response given: B, A, C
(B: 5.51, A: 6.42, C: 6.67)

[1] OCc1cccc(-c2nc(C3=CCOCC3)c3ncn(C4CCN(Cc5ccc(Br)nc5)CC4)c3n2)c1
[2] CNC(=O)Nc1ccc(-c2nc(C3=CCOCC3)c3cnn(C4CCN(Cc5cccnc5)CC4)c3n2)cc1
[3] OCc1cccc(-c2nc(C3=CCOCC3)c3ncn(C4CCN(Cc5ccccc5)CC4)c3n2)c1
Challenge: Returns the items ordered by pIC50, from maximum to minimum. A ranking is expressed here by listing the labels in the requested order.
Response given: 1, 3, 2
(1: 6.64, 3: 6.02, 2: 5.55)

----------
Tested on: Human mTOR (Homo sapiens)
Construct: FLAG
Test protocol: mTOR kinase assay (DELFIA format, purified enzyme)
Condition info: His6-S6K substrate, read-out: TOR Kinase IC50
pIC50: −log10 of the molar value.
Observation type: pIC50

Challenge: Recorded pIC50 of Oc1cccc(-c2nc(C3=CCOCC3)c3ncn(C4CCN(Cc5ccc(Br)nc5)CC4)c3n2)c1 , please.
Response given: 6.16

Challenge: Recorded pIC50 of Oc1cccc(-c2nc(C3=CCOCC3)c3ncn(C4CCN(Cc5ccc[nH]5)CC4)c3n2)c1 , please.
Response given: 5.85

Challenge: Recorded pIC50 of Oc1cccc(-c2nc(C3=CCOCC3)c3ncn(C4CCNCC4)c3n2)c1 , please.
Response given: 5.85

Challenge: Recorded pIC50 of O=C(NCCF)Nc1ccc(-c2nc(C3=CCOCC3)c3cnn(CC(F)(F)F)c3n2)cc1 , please.
Response given: 8.85

[P] Oc1cccc(-c2nc(C3CCOCC3)c3cnn(-c4ccccc4)c3n2)c1
[Q] Cc1ccc(CN2CCC(n3cnc4c(C5=CCOCC5)nc(-c5cccc(O)c5)nc43)CC2)cc1
Challenge: Compare P and Q and name the one whose reported pIC50 is smaller. State your choice using its label.
Response given: Q

[a] O=c1[nH]c2nc(-c3cccc(CO)c3)nc(C3=CCOCC3)c2[nH]1
[b] O=C(Nc1ccccc1)Nc1ccc(-c2nc(C3=CCOCC3)c3cnn(CC(F)(F)F)c3n2)cc1
Challenge: Compare a and b and name the one whose reported pIC50 is smaller. State your choice using its label.
Response given: a
